- Test system: RXF 393
- Test Method Notes: NCI tumour cell line growth inhibition, 48 h
The source made the active and inactive calls. Rule as the data show it: active = GI50 up to about 1.1 µM and inactive = higher.
For each of the molecules below, state its GI50.

>>> df
                                   molecule       recorded_value
0              C1CCOC2(CCC3(CC2)OCCCCO3)OC1  > 100 µM (inactive)
1  CSc1nc2c(nc(N)n2C2OC(COC(C)=O)C(OC(C)=O)C(OC(C)=O)C2OC(C)=O)c(=O)n1C (stereo not drawn)  > 100 µM (inactive)

Could you now consider this next molecule?
# lookup: GI50 of `CN(C)c1ccc(/C(F)=C(F)/C(F)=C(F)/C(F)=C(\F)c2ccc(Br)cc2)cc1` 9.2 µM (inactive)

====

- System: NCI-H460
- Test Method Notes: NCI tumour cell line growth inhibition, 48 h
Active and inactive are the calls of the source. Rule as the data show it: active = GI50 up to about 1.1 µM and inactive = higher.
// allowed return values: active, inactive

Compound	Class
COC(=O)c1ccc(C)cc1CC1Cc2cc(C)ccc2C1=O (configuration not stated)	inactive
CC1C=CC(C)C2(O)C(=O)NC(O)C12 (configuration not stated)	inactive

Give the logged outcome of this assay for the following compound: `NCc1c(C(N)=O)ncn1Cc1ccccc1` inactive

// query: O=S(=O)(O)C1CCC(O)C2NCCCC21 (configuration not stated) inactive

What would you report for COc1ccc(CC2C(=O)NC(C)C(=O)N(C)C3Cc4ccc(cc4)Oc4cc(ccc4O)CC(C(=O)NC(C)C(=O)NC(C)C(=O)N2C)N(C)C3=O)cc1 (configuration not stated) ? active

Note, next up: `O=[N+]([O-])c1cc2c(c3nonc13)OCCCCO2` inactive

Record: CC1(C)CC(=O)C2=C(C1)NC(=S)C(C#N)C2c1ccccc1 (configuration not stated) inactive

====

- System: 786-0
- Test Method Notes: NCI tumour cell line growth inhibition, 48 h
Active and inactive are the calls of the source. Cut-off read from the data, not from the text of the source: active = GI50 up to about 1.1 µM and inactive = higher.
Measurement Label: GI50

>>> print(df.to_string())
                                   compound  measurement_label       recorded_value
0          COc1ccc2c(c1)CCN=C2Cc1ccccc1CCCl               GI50   25.3 µM (inactive)
1  CCCCCCCCCCCCCCCCCC(=O)NCC(COP(=O)([O-])OCC[N+](C)(C)C)OC (stereo not given)               GI50    1.5 µM (inactive)
2  COc1ccc(N2C(=O)C3c4[nH]c5cc(Cl)ccc5c4C4CCC(C(C)(C)C)CC4C3C2=O)cc1 (stereo not given)               GI50  > 100 µM (inactive)

For every listed record, write down its GI50.
1. Cc1ccccc1NC(=O)C(=O)Cc1nc2ccccc2s1
2. O=C(CC(=O)N(C(=O)c1ccccc1)c1ccc(Cl)cc1)N/N=C\c1cc(/N=N/c2ccccc2Cl)ccc1O
3. O=C1C[C@@H](Sc2ccccc2)C2(OCCO2)C2ON3CCCC[C@H]3[C@H]12 (stereo not given in full)

["> 100 µM (inactive)", "38.1 µM (inactive)", "3.53 µM (inactive)"]

Okay, here is my list. What is GI50 for each of these?
1. O=C(c1ccc(Cl)cc1)c1ccc(OCCCCCCCCCCOc2ccc(C(=O)c3ccc(Cl)cc3)cc2)cc1
2. Cc1cc(S(=O)(=O)O)ccc1/N=N/c1ccc(/N=N/c2c(O)ccc3ccccc23)c(C)c1
3. N#CC(/C(CCCC(=O)Nc1cccc([N+](=O)[O-])c1)=N\NC(=O)c1c(O)ccc2ccccc12)c1nc2ccccc2s1 (stereo not given)

["> 100 µM (inactive)", "21.3 µM (inactive)", "34.6 µM (inactive)"]

Sample O=[N+]([O-])c1ccc(C2N3CCCCC3[C@@H]3c4[nH]c5ccccc5c4CCN23)cc1 (stereo not given in full) — what was its GI50? 28.1 µM (inactive)

====

- Test system: COLO 205
- Test Method Notes: NCI tumour cell line growth inhibition, 48 h
Calls of active or inactive are those of the source. No stated cut-off is given here; in the data, active = GI50 up to about 1.1 µM and inactive = higher.
Measurement Label: GI50

Sample answers from the record:
>>> print(df.to_string())
                                   molecule  test_target  measurement_label       recorded_value
0  COC(=O)CSC(=S)Nc1nnc(NC(=S)SCOC(C)=O)n1C(=S)SCC(=O)OC     COLO 205               GI50  > 100 µM (inactive)
1  COC(=O)c1ccc(C)cc1CC1Cc2cc(C)ccc2C1=O (configuration not stated)     COLO 205               GI50  > 100 µM (inactive)
2  C=CC(C)(C)n1cc(C2=C(O)C(=O)C(c3c(CC=C(C)C)[nH]c4ccccc34)=C(O)C2=O)c2ccccc21     COLO 205               GI50   1.71 µM (inactive)
3  CSc1nc2c(nc(N)n2C2OC(COC(C)=O)C(OC(C)=O)C(OC(C)=O)C2OC(C)=O)c(=O)n1C (configuration not stated)     COLO 205               GI50  > 100 µM (inactive)

Look up GI50 for the entries below, preserving their order.
1. O=C(CCC(=O)Nc1cccc(C(F)(F)F)c1)CC(=O)c1ccc2ccccc2c1
2. COC(=O)C1CC23CCCN4CCC5(c6ccccc6N(C=O)C15CC2)C43 (configuration not stated)

> 100 µM (inactive)
> 100 µM (inactive)

Batch request: GI50 for each of the following molecules.
1. COC(=O)[C@H](Cc1ccccc1)NC(=O)N1CCN(C(=O)N[C@@H](Cc2ccccc2)C(=O)OC)CCN(C(=O)N[C@@H](Cc2ccccc2)C(=O)OC)CC1
2. O=P1(NCCCl)OCCCN1CCCl (configuration not stated) [IFOSFAMIDE]
3. CCOC(=O)Cc1c(C(=O)OCC)[n+]([O-])c2cc(Cl)c(Cl)cc2[n+]1[O-]
4. NC1=NNC2(C(N)=N1)c1ccccc1-c1ccccc12

1: > 100 µM (inactive); 2: 394 µM (inactive); 3: 1.73 µM (inactive); 4: > 10 µM (inactive)

Hello, I would appreciate it if you could give GI50 for each entry below.
1. COC(=O)NC(Cc1ccccc1)NC(=O)OC(C)(C)C (configuration not stated)
2. CCCCCCCCCCCCCCCCCC(=O)NCC(COP(=O)([O-])OCC[N+](C)(C)C)OC (configuration not stated)

1: > 100 µM (inactive); 2: 1.48 µM (inactive)

====

- System: KM-20L2
- Test Method Notes: NCI tumour cell line growth inhibition, 48 h
Active and inactive are the calls of the source. No stated cut-off is given here; in the data, active = GI50 up to about 1.1 µM and inactive = higher.
A correct response names exactly one class from active, inactive

Take a look at these entries with their results.
>>> df
                                   compound     class
0  O=[N+]([O-])c1nccn1CC(O)c1ccccc1 (centres undefined)  inactive
1  COC(=O)C1=C(C(=O)OC)C2=S(SC3=C2CCCC3)S1 (centres undefined)  inactive
2  NC(N)=NN/C(=C1/N=c2ccc([N+](=O)[O-])cc2=NC1=O)C(O)c1ccco1 (centres undefined)  inactive
3  COc1ccc(/C=C/C(=O)c2c(-c3ccccc3)nn(C)c(=O)c2N2CCCC2)cc1  inactive
4       COC(=O)c1ccccc1N1C(=O)Cc2ccccc2C1=O  inactive
5  O=P1(NCCCl)OCCCN1CCCl (centres undefined) [IFOSFAMIDE]  inactive
6       Cn1c2ccccc2c2[nH]cc3nc4ccccc4c-3c21  inactive
7  NC(=O)C(=O)C1C(=O)N(c2ccccc2)N=C1N (centres undefined)  inactive
8  c1ccc2c(NCCCCCCNc3c4ccccc4nc4ccccc34)c3ccccc3nc2c1    active
9  CC1=CCCC2C1(C)CCC(C)C2(C)Cc1cc(O)ccc1O (centres undefined)  inactive

Please share the test call associated with `CCOC(=O)NC(=O)c1cn(CCN2CCN(C(=O)CCCCCCCCCCNc3ncnc4[nH]cnc34)CC2)c(=O)[nH]c1=O` . inactive

`COc1c(C=O)c2c(c(OC)c1OC)-c1ccc(OC)c(=O)cc1[C@@H](NC(C)=O)CC2` ? active

Try this compound too: COc1ccc(CC2C(=O)NC(C)C(=O)N(C)C3Cc4ccc(cc4)Oc4cc(ccc4O)CC(C(=O)NC(C)C(=O)NC(C)C(=O)N2C)N(C)C3=O)cc1 (centres undefined) active

Could you do the same for `CC(=O)Nc1ccc(-c2nnc(SCC(=O)Nc3ccccc3[N+](=O)[O-])o2)cc1` , please? inactive

====

- Test system: XF498
- Test Method Notes: NCI tumour cell line growth inhibition, 48 h
Activity calls are given as the source filed them. Cut-off read from the data, not from the text of the source: active = GI50 up to about 1.1 µM and inactive = higher.
Measurement Label: GI50

Dear colleague, could you please provide GI50 for the compounds listed below?
1. CN(C)CCNC(=O)c1cccc2nc3c(Cl)cccc3nc12
2. N#CC(C#N)=C(N)/C(C#N)=C/c1ccc(O)c(O)c1
3. CC1C(=O)C(C)C(c2ccccc2)N(N=O)C1c1ccccc1 (stereo not given)
4. CSC(=S)N/N=C/c1nccc2ccccc12
5. O=C(Nc1ccccc1)c1ccc(Cl)c([N+](=O)[O-])c1
6. CC(=O)OC1COC(n2c(=S)n(-c3ccc(C)cc3)c(=O)c3ccccc32)C(OC(C)=O)C1OC(C)=O (stereo not given)
7. COc1nc(NC2OC(COC(C)=O)C(OC(C)=O)C(OC(C)=O)C2OC(C)=O)c(/N=C/C=N/c2c(NC3OC(COC(C)=O)C(OC(C)=O)C(OC(C)=O)C3OC(C)=O)nc(OC)n(C)c2=O)c(=O)n1C (stereo not given)
8. CC1=CCCC2C1(C)CCC(C)C2(C)Cc1cc(O)ccc1O (stereo not given)

1. 2.92 µM (inactive)
2. > 100 µM (inactive)
3. 19.4 µM (inactive)
4. 0.809 µM (active)
5. 18 µM (inactive)
6. > 100 µM (inactive)
7. 44.2 µM (inactive)
8. 7.23 µM (inactive)

Would you mind giving GI50 for every compound in the list below?
1. Cn1nnc2c(C(N)=O)ncn2c1=O [TEMOZOLOMIDE]
2. Cc1ccccc1NC(=O)C(=O)Cc1nc2ccccc2s1

1. > 100 µM (inactive)
2. > 100 µM (inactive)
